assay: Oral bioavailability in rat; settings: in vivo, intraduodenal, 10 mg/kg
observable: bioavailability

These recorded examples may help you get a feel for the data.
query-smiles	bioavailability
CCCC[C@H](N[C@@H](Cc1ccccc1)C(=O)N1CCC(OCOC)CC1)C(=O)N[C@@H](CC1CCCCC1)[C@@H](O)C[C@H](C(=O)NCC(C)(C)N1CCOCC1)C(C)C	35%
CCCC[C@H](N[C@@H](Cc1ccccc1)C(=O)N1CCC(OCOC)CC1)C(=O)N[C@@H](CC1CCCCC1)[C@@H](O)C[C@H](C(=O)NCCCN1CCOCC1)C(C)C	36.3%
CCCC[C@H](N[C@@H](Cc1ccccc1)C(=O)N1CCC(OCOC)CC1)C(=O)N[C@@H](CC1CCCCC1)[C@@H](O)C[C@H](C(=O)NCCC1CCCCC1)C(C)C	4%

Input: Name the reported bioavailability value associated with the molecule "CCCC[C@H](N[C@@H](Cc1ccccc1)C(=O)N1CCC(OCOC)CC1)C(=O)N[C@@H](CC1CCCCC1)[C@@H](O)C[C@H](C(=O)NCCN1CCCCC1)C(C)C"
Output: 15%

Input: Name the reported bioavailability value associated with the molecule "CCCC[C@H](N[C@@H](Cc1ccccc1)C(=O)N1CCC(OCOC)CC1)C(=O)N[C@@H](CC1CCCCC1)[C@@H](O)C[C@H](C(=O)NCc1ccccc1)C(C)C"
Output: 7%

Input: Name the reported bioavailability value associated with the molecule "CCCC[C@H](N[C@@H](Cc1ccccc1)C(=O)N1CCC(OCOC)CC1)C(=O)N[C@@H](CC1CCCCC1)[C@@H](O)C[C@H](C(=O)NCC(C)(C)NCCO)C(C)C"
Output: 1%

###

assay: Average peak plasma concentration of compound after 1 mg/kg intravenous administration in salt depleted dog; settings: in vivo
observable: Cmax (ng/mL)
Give just the numeric value; ng/mL need not be written.

Input: Name the reported Cmax value associated with the compound "CCCC[C@H](N[C@@H](Cc1ccccc1)C(=O)N1CCC(OCOC)CC1)C(=O)N[C@@H](CC1CCCCC1)[C@@H](O)C[C@H](C(=O)NCCCN1CCOCC1)C(C)C"
Output: 4700

###

experiment: Average peak plasma concentration of compound after 1 mg/kg intravenous administration to rat; details: plasma
Measured log10(Cmax), listed per entry for reference.
Please note: log10 values; quantity Cmax; unit ng/mL.

query-smiles	log10(Cmax)
CCCC[C@H](N[C@@H](Cc1ccccc1)C(=O)N1CCC(OCOC)CC1)C(=O)N[C@@H](CC1CCCCC1)[C@@H](O)C[C@H](C(=O)NCc1ccncc1)C(C)C	3.39
CCCC[C@H](N[C@@H](Cc1ccccc1)C(=O)N1CCC(OCOC)CC1)C(=O)N[C@@H](CC1CCCCC1)[C@@H](O)C[C@H](C(=O)NCc1ccccn1)C(C)C	3.80
CCCC[C@H](N[C@@H](Cc1ccccc1)C(=O)N1CCC(OCOC)CC1)C(=O)N[C@@H](CC1CCCCC1)[C@@H](O)C[C@H](C(=O)NCCN1CCCCC1)C(C)C	3.00

Input: Name the reported log10(Cmax) value associated with the compound "CCCC[C@H](N[C@@H](Cc1ccccc1)C(=O)N1CCC(OCOC)CC1)C(=O)N[C@@H](CC1CCCCC1)[C@@H](O)C[C@H](C(=O)NCCN1CCOCC1)C(C)C"
Output: 2.83

Input: Name the reported log10(Cmax) value associated with the compound "CCCC[C@H](N[C@@H](Cc1ccccc1)C(=O)N1CCC(OCOC)CC1)C(=O)N[C@@H](CC1CCCCC1)[C@@H](O)C[C@H](C(=O)NCCNc1n[nH]c(N)n1)C(C)C"
Output: 2.91

Input: Name the reported log10(Cmax) value associated with the compound "CCCC[C@H](N[C@@H](Cc1ccccc1)C(=O)N1CCC(OCOC)CC1)C(=O)N[C@@H](CC1CCCCC1)[C@@H](O)C[C@H](C(=O)NCCC[N+]1([O-])CCOCC1)C(C)C"
Output: 3.05

###

test: Partition coefficient (logD6.5); conditions: octanol/water, pH 6.5
observable: logD

These recorded examples may help you get a feel for the data.
query-smiles	logD
CCCC[C@H](O[C@@H](Cc1ccccc1)C(=O)N1CCC(OCOC)CC1)C(=O)N[C@@H](CC1CCCCC1)[C@@H](O)C[C@H](C(=O)NCCCNC(C)=O)C(C)C	4.3
CCCC[C@H](N[C@@H](Cc1ccccc1)C(=O)N1CCC(OCOC)CC1)C(=O)N[C@@H](CC1CCCCC1)[C@@H](O)C[C@H](C(=O)NCC(=O)O)C(C)C	2.3
CCCC[C@H](O[C@@H](Cc1ccccc1)C(=O)N1CCC(OCOC)CC1)C(=O)N[C@@H](CC1CCCCC1)[C@@H](O)C[C@H](C(=O)NCCC/N=C(/NC)NC#N)C(C)C	4.4
CCCC[C@H](O[C@@H](Cc1ccccc1)C(=O)N1CCC(OCOC)CC1)C(=O)N[C@@H](CC1CCCCC1)[C@@H](O)C[C@H](C(=O)NCCCNc1nnc(N)[nH]1)C(C)C	4.3
CCCC[C@H](O[C@@H](Cc1ccccc1)C(=O)N1CCC(OCOC)CC1)C(=O)N[C@@H](CC1CCCCC1)[C@@H](O)C[C@H](C(=O)NCCNc1n[nH]c(N)n1)C(C)C	3.9

Consider the additional molecule presented here.
Input: Name the reported logD value associated with the molecule "CCCC[C@H](N[C@@H](Cc1ccccc1)C(=O)N1CCC(OCOC)CC1)C(=O)N[C@@H](CC1CCCCC1)[C@@H](O)C[C@H](C(=O)NCCCN)C(C)C"
Output: 2.7

###

target: Renin (Homo sapiens, UniProt P00797); test: Tested in vitro for its ability to inhibit the human plasma renin at pH of 7.4; type: cell-free
Sequence (P00797 whole entry): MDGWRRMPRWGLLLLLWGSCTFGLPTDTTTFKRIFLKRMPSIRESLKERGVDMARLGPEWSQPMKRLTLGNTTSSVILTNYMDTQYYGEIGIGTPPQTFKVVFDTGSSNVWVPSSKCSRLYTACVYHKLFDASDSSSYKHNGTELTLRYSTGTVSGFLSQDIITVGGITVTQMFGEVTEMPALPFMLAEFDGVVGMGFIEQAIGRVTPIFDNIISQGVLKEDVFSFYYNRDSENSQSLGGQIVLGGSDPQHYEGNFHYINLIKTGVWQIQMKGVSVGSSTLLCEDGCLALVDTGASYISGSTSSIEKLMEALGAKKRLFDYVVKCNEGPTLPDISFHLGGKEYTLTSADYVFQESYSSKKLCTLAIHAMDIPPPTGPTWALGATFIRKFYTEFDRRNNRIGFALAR
observable: IC50

query-smiles	observed
CCCC[C@H](O[C@@H](Cc1ccccc1)C(=O)N1CCC(OCOC)CC1)C(=O)N[C@@H](CC1CCCCC1)[C@@H](O)C[C@H](C(=O)NCCNC(N)=NC#N)C(C)C	1.8 nM
CCCC[C@H](O[C@@H](Cc1ccccc1)C(=O)N1CCC(OCOC)CC1)C(=O)N[C@@H](CC1CCCCC1)[C@@H](O)C[C@H](C(=O)NCCCN)C(C)C	4.5 nM

Input: Name the reported IC50 value associated with the compound "CCCC[C@H](O[C@@H](Cc1ccccc1)C(=O)N1CCC(OCOC)CC1)C(=O)N[C@@H](CC1CCCCC1)[C@@H](O)C[C@H](C(=O)NCC(C)(C)N1CCOCC1)C(C)C"
Output: 5.9 nM

###

assay: Average peak plasma concentration of compound at 10 mg/kg intraduodenal administration in salt depleted dog; conditions: in vivo
observable: Cmax (µg/mL)
Give just the numeric value; µg/mL need not be written.

Input: Name the reported Cmax value associated with the molecule "CCCC[C@H](N[C@@H](Cc1ccccc1)C(=O)N1CCC(OCOC)CC1)C(=O)N[C@@H](CC1CCCCC1)[C@@H](O)C[C@H](C(=O)NCCCN1CCOCC1)C(C)C"
Output: 1.26

###

test: Oral bioavailability in ferret; conditions: in vivo
observable: bioavailability (%)
Give just the numeric value; % need not be written.

query-smiles	bioavailability, %
CCCC[C@H](N[C@@H](Cc1ccccc1)C(=O)N1CCC(OCOC)CC1)C(=O)N[C@@H](CC1CCCCC1)[C@@H](O)C[C@H](C(=O)NCCN1CCOCC1)C(C)C	51
CCCC[C@H](N[C@@H](Cc1ccccc1)C(=O)N1CCC(OCOC)CC1)C(=O)N[C@@H](CC1CCCCC1)[C@@H](O)C[C@H](C(=O)NCCC[N+]1([O-])CCOCC1)C(C)C	20

Consider the additional compound presented here.
Input: Name the reported bioavailability value associated with the compound "CCCC[C@H](N[C@@H](Cc1ccccc1)C(=O)N1CCC(OCOC)CC1)C(=O)N[C@@H](CC1CCCCC1)[C@@H](O)C[C@H](C(=O)NCCN1CCCC1)C(C)C"
Output: 29

###

Measured Cmax, listed per entry for reference.
experiment: Average peak plasma concentration of compound after 10 mg/kg intraduodenal administration to Ferret; conditions: plasma
Give just the numeric value; ng/mL need not be written.

query-smiles	units	Cmax
CCCC[C@H](N[C@@H](Cc1ccccc1)C(=O)N1CCC(OCOC)CC1)C(=O)N[C@@H](CC1CCCCC1)[C@@H](O)C[C@H](C(=O)NCc1ccccn1)C(C)C	ng/mL	9120
CCCC[C@H](N[C@@H](Cc1ccccc1)C(=O)N1CCC(OCOC)CC1)C(=O)N[C@@H](CC1CCCCC1)[C@@H](O)C[C@H](C(=O)NCCN1CCCCC1)C(C)C	ng/mL	3730

Consider the additional compound presented here.
Input: Name the reported Cmax value associated with the compound "CCCC[C@H](N[C@@H](Cc1ccccc1)C(=O)N1CCC(OCOC)CC1)C(=O)N[C@@H](CC1CCCCC1)[C@@H](O)C[C@H](C(=O)NCCN1CCOCC1)C(C)C"
Output: 6500

###

experiment: Average peak plasma concentration of compound at 10 mg/kg intraduodenal administration in salt depleted dog; settings: plasma
Measured Cmax, listed per entry for reference.
Report the figure along with its unit, number first.

query-smiles	Cmax
CCCC[C@H](N[C@@H](Cc1ccccc1)C(=O)N1CCC(OCOC)CC1)C(=O)N[C@@H](CC1CCCCC1)[C@@H](O)C[C@H](C(=O)NCC(C)(C)N1CCOCC1)C(C)C	1600 ng/mL

Input: Name the reported Cmax value associated with the molecule "CCCC[C@H](N[C@@H](Cc1ccccc1)C(=O)N1CCC(OCOC)CC1)C(=O)N[C@@H](CC1CCCCC1)[C@@H](O)C[C@H](C(=O)NCCC[N+]1([O-])CCOCC1)C(C)C"
Output: 420 ng/mL

Input: Name the reported Cmax value associated with the molecule "CCCC[C@H](N[C@@H](Cc1ccccc1)C(=O)N1CCC(OCOC)CC1)C(=O)N[C@@H](CC1CCCCC1)[C@@H](O)C[C@H](C(=O)NCCN1CCOCC1)C(C)C"
Output: 1830 ng/mL

Just for reference, ChEMBL document CHEMBL1127457 is where these values come from.
